Target: T1, hemagglutinin (HA) of influenza B virus B/Brisbane/60/2008 (Victoria lineage) (Influenza B virus B/Brisbane/60/2008, UniProt C0LT35, strain)
T1 construct: also called B/Brisbane/60/2008 HA; source: bought: Immune Tech
Assay: ELISA
Settings: both partners purified

BINDER: TRL854 (antibody, V domains shown, also called MAb TRL854) VH: QVQLVESGAEVKKPGASVRVSCKGSGYTFTAYHMHWVRQAPGQGFEWVGWINPNSGATYYTSTFEGRVTMTRDTSITTAYMELSSLRSDDTAVYYCATDIVVERDASLGGFNSYGMDVWGQGTTVTVSS VL: DIEMTQSPLSLPVTPGEPASISCRSSQSLLHSNGYNHLAWYLQKPGRSPHLLIYLASTRASGVPDRFSGSGSGTDFTLKISRVEAEDVGIYYCMQSLQTSITFGQGTRLEIK
binding result: binds
--
BINDER: TRL845 (antibody, V domains shown, also called MAb TRL845) VH: QVQLVQSGGDLVQPGGSLRLSCAASGFTFSRYSMNWVRQAPGMGLEWVAYISDTSRTIYYADSVKGRFTISRDNAKNSLYLQMKSLRDEDTAVYYCARDPDTPFVRAFDSWGQGTLVTVSS VL: DIVLTQSPSFLSASVGDRVTITCRASQLISSYFAWYQQKPGKPPKLLIYAASTLQSGVPSRFSGSGSGTQFSLTISSLQPEDFATYYCQQLNSYPPITFGQGTRLEIK
binding result: binds
--
BINDER: TRL848 (antibody, V domains shown, also called MAb TRL848) VH: QVQLLESGGDVVQPGTSLRLSCAASGFSLWTSGMHWVRQAPGKGLEWVAVMSYDETKKYYADSVRGRFSISRDNSRNTLYLQMNSLRVEDTAVYFCAKPRLDYLDYFHAADSWGQGTLVSVSS VL: DIVLTQPPSVSVAPGQTATITCGGNYIGSKSVNWYQQRPGHAPVLVVYDDSDRPSGIPDRFSGSNSRSTATTATLTISRVEAGDEADYYCQVWETSEDLWVFGGGTKLTVL
binding result: binds
--
BINDER: TRL849 (antibody, V domains shown, also called MAb TRL849) VH: QVQLVESGPGLVKPSQTLSLTCTVSGGSISNGGYHWSWIRQHPGKGLEWIGNIYYRGSTFYDPSLKSRVTISVDTSKSQFSLKLTSVTAADTAVYYCARMPLANYDLLTGLYIGAFDLWGQGTMVTVSS VL: DIVLTQSPATLSVSPGERATLSCRASQSVNRNLAWFQQIPGQAPRLLIFDASTRAADIPARFSGGGSGAEFTLTVSSLQPEDFAVYYCQQYDKWPPGFGQGTKVEIK
binding result: binds
--
BINDER: TRL847 (antibody, V domains shown, also called MAb TRL847) VH: QVQLVESGGGLVQPGGSLRLSCVASGFTFSRFSMNWVRQAPGMGLEWVSYISDTGRTIYYADSVKGRFTISRDNDKNTLYLQMKSLRDEDSAFYYCARDPDTPFVRAFDSWGQGVLVTVSS VL: DIVMTQSPSFLSASVGDRVTITCRTSQVISSYLAWYQQRPGKAPKLLIYAASTLQSGVPSRFSGSGSGTRFSLTISNLQPEDFATYFCQQLTTYPPITFGQGTRLEIK
binding result: binds
